src = PubChem BioAssay (EPA / NIEHS)

target: Nuclear receptor subfamily 4 group A member 2 (Homo sapiens); assay: ATG_NURR1_TRANS: Attagene TRANS-FACTORIAL HepG2 Assay for human Nuclear Receptor Related Protein 1 (NURR1) (AID 2282985); conditions: HepG2 Attagene TRANS reporter, mRNA readout
Records with an inconclusive call do not appear. The source made the active and inactive calls. Rule for the calls: active = hit-call score of the fitted dose curve at least 0.9, where 1 is the maximum; inconclusive = response in the unintended direction; inactive = score below 0.9.
Allowed answers: label 1 = active, label 0 = inactive

{"Compound": "C=C(C)[C@H]1CC=C(C)CC1", "Study System": "Nuclear receptor subfamily 4 group A member 2 (Homo sapiens)", "Classification": "label 0"}
{"Compound": "CCN(CCO)c1cccc(C)c1", "Study System": "Nuclear receptor subfamily 4 group A member 2 (Homo sapiens)", "Classification": "label 0"}
{"Compound": "CNC(=S)NN", "Study System": "Nuclear receptor subfamily 4 group A member 2 (Homo sapiens)", "Classification": "label 0"}
{"Compound": "CC(=O)Oc1ccc(C)cc1", "Study System": "Nuclear receptor subfamily 4 group A member 2 (Homo sapiens)", "Classification": "label 0"}
{"Compound": "CCC(C)OC(=O)c1ccc(O)cc1 (centres undefined)", "Study System": "Nuclear receptor subfamily 4 group A member 2 (Homo sapiens)", "Classification": "label 0"}
{"Compound": "O=C1c2ccccc2C(=O)C1c1nc2ccccc2c(Br)c1O", "Study System": "Nuclear receptor subfamily 4 group A member 2 (Homo sapiens)", "Classification": "label 0"}
{"Compound": "CC(C)C1=CC2=CC[C@@H]3[C@](C)(CCC[C@@]3(C)C(=O)O)[C@H]2CC1", "Study System": "Nuclear receptor subfamily 4 group A member 2 (Homo sapiens)", "Classification": "label 1"}
{"Compound": "FC(F)=C(F)OC(F)(F)C(F)(F)C(F)(F)F", "Study System": "Nuclear receptor subfamily 4 group A member 2 (Homo sapiens)", "Classification": "label 0"}

**Q:** What classification did C=CC(C)(CCC=C(C)C)OC(=O)C(C)C (centres undefined) end up with in this test?
**A:** label 0

**Q:** What classification did COc1ccc(-c2coc3cc(O)ccc3c2=O)cc1 end up with in this test?
**A:** label 0

**Q:** What classification did O=C(O)CCCCCCCCCC(=O)O end up with in this test?
**A:** label 0

**Q:** What classification did Cc1cc(=O)n(-c2ccccc2)n1C end up with in this test?
**A:** label 0

**Q:** What classification did COc1cc(C)ccc1C(C)C end up with in this test?
**A:** label 0

**Q:** What classification did COCC(C)N (centres undefined) end up with in this test?
**A:** label 0

* * *

read-out: Matrix Metallopeptidase 1 (MMP1), MMP1 (gene 4312); assay: BSK_hDFCGF_MMP1: BioMAP Diversity Plus: hDFCGF Assay for Matrix Metallopeptidase 1 (MMP1) Biomarker Activity (AID 2283064); details: primary human foreskin fibroblasts; actives raise or lower the signal
Activity calls are given as the source filed them. The calls were made as follows: active = hit-call score of the fitted dose curve at least 0.9, where 1 is the maximum; inactive = score below 0.9.
Allowed answers: T for active, F for inactive

Solved entries (count: 5):
{"Compound": "C=CC(=O)OCC(Br)CBr (stereo not drawn)", "Classification": "T"}
{"Compound": "c1ccc2c(c1)ccc1cc3c(ccc4ccccc43)cc12", "Classification": "F"}
{"Compound": "O=C(Nc1ccccc1SSc1ccccc1NC(=O)c1ccccc1)c1ccccc1", "Classification": "F"}
{"Compound": "C=C[Si](OC(C)=O)(OC(C)=O)OC(C)=O", "Classification": "F"}
{"Compound": "O=c1c2ccccc2oc2ccccc12", "Classification": "F"}

**Q:** What classification did C=CC=CC=CCCCCC end up with in this test?
**A:** F

**Q:** What classification did CCCCCCCCc1ccc(Nc2ccc(CCCCCCCC)cc2)cc1 end up with in this test?
**A:** F

* * *

molecular target: Heat shock factor protein 1 (Homo sapiens); test: ATG_HSE_CIS: Attagene CIS-FACTORIAL HepG2 Assay for human Heat Shock Transcription Factor 1 (HSE) (AID 2282953); conditions: HepG2 HSE cis-reporter, Attagene RNA transcription; actives raise or lower the signal
Active and inactive are the calls of the source. Rule for the calls: active = hit-call score of the fitted dose curve at least 0.9, where 1 is the maximum; inactive = score below 0.9.
Allowed answers: active, inactive

Solved entries (count: 5):
{"Molecule": "c1ccc2c(c1)ccc1cc3c(ccc4ccccc43)cc12", "Classification": "inactive"}
{"Molecule": "CCCCC(CC)COC(=O)c1ccccc1 (stereo unspecified)", "Classification": "inactive"}
{"Molecule": "CCc1nccnc1C", "Classification": "inactive"}
{"Molecule": "C#CC1(O)CC[C@H]2[C@@H]3CCC4=CCCC[C@@H]4[C@H]3CC[C@@]21C (stereo partly specified)", "Classification": "inactive"}
{"Molecule": "CCOC(=O)c1ccccc1C(=C1C=C(Br)C(=O)C(Br)=C1)c1cc(Br)c(O)c(Br)c1", "Classification": "active"}

**Q:** What classification did Cn1c(=O)[nH]c2ncn(C)c2c1=O end up with in this test?
**A:** inactive

**Q:** What classification did CCCc1ccc(OC)cc1 end up with in this test?
**A:** inactive

**Q:** What classification did CCCCOCCOC(=O)COc1nc(Cl)c(Cl)cc1Cl end up with in this test?
**A:** inactive

**Q:** What classification did CC(C)c1ccc2c(C(C)C)cc(C(C)C)c(S(=O)(=O)O)c2c1 end up with in this test?
**A:** inactive

**Q:** What classification did CC(=O)OCC(=O)[C@@]12N=C(C)O[C@@H]1C[C@H]1[C@@H]3CCC4=CC(=O)C=C[C@]4(C)[C@H]3[C@@H](O)C[C@@]12C end up with in this test?
**A:** inactive

**Q:** What classification did CCCCC/C=C\C/C=C\CCCCCCCC(=O)OC end up with in this test?
**A:** active

* * *

test: ATG_GRE_CIS: Attagene CIS-FACTORIAL HepG2 Assay for human Glucocorticoid Response Elements (GRE) (AID 2282947); conditions: HepG2 GRE cis-reporter, Attagene multiplex mRNA; actives raise or lower the signal
Calls of active or inactive are those of the source. The calls were made as follows: active = hit-call score of the fitted dose curve at least 0.9, where 1 is the maximum; inactive = score below 0.9.
Allowed answers: label 1 (active), label 0 (inactive)

Solved entries (count: 6):
{"Molecule": "CC1(C)O[C@@H]2C[C@H]3[C@@H]4C[C@H](F)C5=CC(=O)CC[C@]5(C)[C@H]4[C@@H](O)C[C@]3(C)[C@]2(C(=O)CO)O1", "Classification": "label 1"}
{"Molecule": "CCCCCCCC/C=C\\CCCCCCCC(=O)O", "Classification": "label 0"}
{"Molecule": "CCCCCCCOC(=O)CCC", "Classification": "label 0"}
{"Molecule": "CC(C)=CC1CC(C)CCO1 (stereo not drawn)", "Classification": "label 0"}
{"Molecule": "Cc1oncc1C(=O)Nc1ccc(C(F)(F)F)cc1", "Classification": "label 0"}
{"Molecule": "CCOC(=O)[C@H](C)O", "Classification": "label 0"}

**Q:** What classification did O=S(=O)(O)c1ccc2cc(O)c(S(=O)(=O)O)cc2c1 end up with in this test?
**A:** label 0

**Q:** What classification did O=C1CCCCCCCCCCCCCCCO1 end up with in this test?
**A:** label 0

**Q:** What classification did NCCCN1CCN(CCCN)CC1 end up with in this test?
**A:** label 0

**Q:** What classification did O=S(=O)(O)c1cc(S(=O)(=O)O)c2ccc3c(S(=O)(=O)O)cc(S(=O)(=O)O)c4ccc1c2c43 end up with in this test?
**A:** label 0

**Q:** What classification did O=c1cc(-c2ccccc2)oc2ccccc12 end up with in this test?
**A:** label 0

**Q:** What classification did CC(C)(C)c1n[nH]c(=O)n(N)c1=O end up with in this test?
**A:** label 0

**Q:** What classification did Oc1ccc(Cl)cc1Cc1cc(Cl)ccc1O end up with in this test?
**A:** label 0

**Q:** What classification did O=C1c2ccccc2C(=O)C1c1nc2ccccc2c(Br)c1O end up with in this test?
**A:** label 0

* * *

target: Estrogen receptor (Homo sapiens) (UniProt P03372); assay: NVS_NR_hER: NovaScreen (NVS) Nuclear Receptor Binding Assay for human Estrogen Receptor (ER) (AID 2283348)
Sequence (P03372 whole entry, looked up): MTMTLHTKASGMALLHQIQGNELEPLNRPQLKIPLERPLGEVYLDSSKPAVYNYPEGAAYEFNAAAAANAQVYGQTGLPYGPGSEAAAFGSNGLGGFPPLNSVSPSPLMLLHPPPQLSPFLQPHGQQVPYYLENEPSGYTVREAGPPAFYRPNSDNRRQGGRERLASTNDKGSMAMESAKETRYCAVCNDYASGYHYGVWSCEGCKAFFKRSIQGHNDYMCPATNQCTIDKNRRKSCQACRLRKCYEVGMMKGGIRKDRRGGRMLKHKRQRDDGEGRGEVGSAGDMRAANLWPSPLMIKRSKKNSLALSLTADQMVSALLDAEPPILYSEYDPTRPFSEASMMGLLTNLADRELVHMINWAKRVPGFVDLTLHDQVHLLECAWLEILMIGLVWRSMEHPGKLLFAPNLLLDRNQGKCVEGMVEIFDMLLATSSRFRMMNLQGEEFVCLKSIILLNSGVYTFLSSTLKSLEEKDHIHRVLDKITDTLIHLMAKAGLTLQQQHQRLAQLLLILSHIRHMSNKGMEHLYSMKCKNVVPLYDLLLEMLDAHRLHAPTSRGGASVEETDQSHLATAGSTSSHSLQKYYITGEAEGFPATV
Records with an inconclusive call do not appear. The source made the active and inactive calls. How the source made its calls: active means hit-call score of the fitted dose curve at least 0.9, where 1 is the maximum; inconclusive means response in the unintended direction; inactive means score below 0.9.
Allowed answers: active, inactive

{"Molecular String": "Cc1cccc(N(C)C(=S)Oc2ccc3ccccc3c2)c1", "Classification": "inactive"}
{"Molecular String": "Nc1ccc(Oc2ccc(N)c(N)c2)cc1", "Classification": "inactive"}
{"Molecular String": "O=C(c1ccccc1)c1ccc(O)c(O)c1O", "Classification": "inactive"}
{"Molecular String": "CC(C)c1ccc2c(c1)CC[C@H]1[C@](C)(CN)CCC[C@]21C", "Classification": "inactive"}

**Q:** What classification did COc1ccc(C(Cl)=C(c2ccc(OC)cc2)c2ccc(OC)cc2)cc1 end up with in this test?
**A:** active
